Listing: kon of selected binders
# target or system: T1, monomeric recombinant human Notch3 extracellular domain (containing EGF like domains 1-11) fusion protein (human, UniProt Q9UM47 40-467)
# T1 construct: domain: EGF like domains 1-11; also called monomeric rhNotch3
# T1 sequence (looked up): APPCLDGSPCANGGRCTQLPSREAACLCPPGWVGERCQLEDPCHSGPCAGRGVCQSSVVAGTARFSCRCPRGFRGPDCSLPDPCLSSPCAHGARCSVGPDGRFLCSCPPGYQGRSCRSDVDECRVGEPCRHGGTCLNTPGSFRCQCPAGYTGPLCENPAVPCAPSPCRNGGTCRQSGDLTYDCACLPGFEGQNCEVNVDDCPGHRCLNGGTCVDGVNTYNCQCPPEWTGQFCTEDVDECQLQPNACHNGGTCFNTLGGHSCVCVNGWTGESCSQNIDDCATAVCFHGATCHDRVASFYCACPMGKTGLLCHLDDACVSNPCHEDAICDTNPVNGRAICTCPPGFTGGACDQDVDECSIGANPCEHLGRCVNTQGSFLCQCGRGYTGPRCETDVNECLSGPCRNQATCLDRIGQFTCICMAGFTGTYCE
# protocol details: SPR BIAcore T100, monomeric rhNotch3 analyte, 37 C, average of Table 16 and additional measurements
Kindly provide the numeric value in M⁻¹ s⁻¹ only, without the unit symbol.

Look over these answered cases.
binder	quantity kind	val
Hu4F11-72 (antibody, human IgG1, kappa, V domains shown, Humanized, human IgG1 kappa; Hv3-23 S31H T62S heavy + Kv2D-29 N28H kappa) VH: EVQLLESGGGLVQPGGSLRLSCAASGFAFSHYDMSWVRQAPGKGLEWVSYISRGGGSTYYPDSVKGRFTISRDNSKNTLYLQMNSLRAEDTAVYYCGRHATTAYWYFDVWGQGTMVTVSS VL: DVVMTQTPLSLSVTPGQPASISCRSSQSLVHTHGNTYLHWYLQKPGQSPQLLIYKVSNRFSGVPDRFSGSGSGTDFTLKISRVEAEDVGVYFCSQSTHVPWTFGQGTKVEIKR	kon	710000
Hu4F11-77 (antibody, human IgG1, kappa, V domains shown, Humanized, human IgG1 kappa; Hv3-23 A28T S31N T62S heavy + Kv2D-29 N28Q kappa) VH: EVQLLESGGGLVQPGGSLRLSCAASGFTFSNYDMSWVRQAPGKGLEWVSYISRGGGSTYYPDSVKGRFTISRDNSKNTLYLQMNSLRAEDTAVYYCGRHATTAYWYFDVWGQGTMVTVSS VL: DVVMTQTPLSLSVTPGQPASISCRSSQSLVHTQGNTYLHWYLQKPGQSPQLLIYKVSNRFSGVPDRFSGSGSGTDFTLKISRVEAEDVGVYFCSQSTHVPWTFGQGTKVEIKR	kon	1.2e+06
Hu4F11-32 (antibody, human IgG1, kappa, V domains shown, Humanized, human IgG1 kappa; Sh4F11 Hv3-23 heavy + Hu4F11 Kv2D-29 kappa) VH: EVQLLESGGGLVQPGGSLRLSCAASGFAFSSYDMSWVRQAPGKGLEWVSYISRGGGSTYYPDTVKGRFTISRDNSKNTLYLQMNSLRAEDTAVYYCGRHATTAYWYFDVWGQGTMVTVSS VL: DVVMTQTPLSLSVTPGQPASISCRSSQSLVHTNGNTYLHWYLQKPGQSPQLLIYKVSNRFSGVPDRFSGSGSGTDFTLKISRVEAEDVGVYFCSQSTHVPWTFGQGTKVEIKR	kon	7.4e+06
Hu4F11-70 (antibody, human IgG1, kappa, V domains shown, Humanized, human IgG1 kappa; Hv3-23 A28T S31H T62S heavy + Kv2D-29 N28H kappa) VH: EVQLLESGGGLVQPGGSLRLSCAASGFTFSHYDMSWVRQAPGKGLEWVSYISRGGGSTYYPDSVKGRFTISRDNSKNTLYLQMNSLRAEDTAVYYCGRHATTAYWYFDVWGQGTMVTVSS VL: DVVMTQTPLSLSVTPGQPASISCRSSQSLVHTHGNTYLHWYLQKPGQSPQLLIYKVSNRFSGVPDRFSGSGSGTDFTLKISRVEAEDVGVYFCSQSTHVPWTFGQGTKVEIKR	kon	690000
Hu4F11-73 (antibody, human IgG1, kappa, V domains shown, Humanized, human IgG1 kappa; Hv3-23 A28T S31N T62S heavy + Kv2D-29 N28Y kappa) VH: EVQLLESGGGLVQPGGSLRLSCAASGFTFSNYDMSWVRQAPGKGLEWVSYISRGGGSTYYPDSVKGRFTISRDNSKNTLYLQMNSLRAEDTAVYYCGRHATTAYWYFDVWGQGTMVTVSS VL: DVVMTQTPLSLSVTPGQPASISCRSSQSLVHTYGNTYLHWYLQKPGQSPQLLIYKVSNRFSGVPDRFSGSGSGTDFTLKISRVEAEDVGVYFCSQSTHVPWTFGQGTKVEIKR	kon	490000

Input line: What value of measured kon is listed for Hu4F11-76 (antibody, human IgG1, kappa, V domains shown, Humanized, human IgG1 kappa; Hv3-23 S31H T62S heavy + Kv2D-29 N28Y kappa) VH: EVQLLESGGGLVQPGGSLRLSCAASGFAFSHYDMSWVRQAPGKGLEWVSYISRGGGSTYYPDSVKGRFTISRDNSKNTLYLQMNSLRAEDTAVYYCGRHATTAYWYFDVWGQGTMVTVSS VL: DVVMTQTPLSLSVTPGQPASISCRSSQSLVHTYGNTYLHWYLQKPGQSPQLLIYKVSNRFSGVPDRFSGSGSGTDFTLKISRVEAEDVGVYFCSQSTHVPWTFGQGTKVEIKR ?
Output line: 980000

Input line: Now try Hu4F11-74 (antibody, human IgG1, kappa, V domains shown, Humanized, human IgG1 kappa; Hv3-23 A28T S31H T62S heavy + Kv2D-29 N28Y kappa) VH: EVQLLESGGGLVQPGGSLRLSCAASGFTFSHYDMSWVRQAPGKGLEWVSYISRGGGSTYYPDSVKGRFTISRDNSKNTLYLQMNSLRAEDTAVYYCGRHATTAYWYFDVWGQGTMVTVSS VL: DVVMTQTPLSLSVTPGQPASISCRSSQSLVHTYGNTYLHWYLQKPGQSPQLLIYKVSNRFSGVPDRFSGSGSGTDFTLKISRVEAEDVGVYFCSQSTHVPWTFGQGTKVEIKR .
Output line: 490000

Input line: Now try Hu4F11-71 (antibody, human IgG1, kappa, V domains shown, Humanized, human IgG1 kappa; Hv3-23 A28T T62S heavy + Kv2D-29 N28H kappa) VH: EVQLLESGGGLVQPGGSLRLSCAASGFTFSSYDMSWVRQAPGKGLEWVSYISRGGGSTYYPDSVKGRFTISRDNSKNTLYLQMNSLRAEDTAVYYCGRHATTAYWYFDVWGQGTMVTVSS VL: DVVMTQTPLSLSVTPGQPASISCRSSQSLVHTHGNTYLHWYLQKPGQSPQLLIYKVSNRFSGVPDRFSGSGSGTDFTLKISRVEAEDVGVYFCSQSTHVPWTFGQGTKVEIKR .
Output line: 1.1e+06

Input line: Now try Hu4F11-80 (antibody, human IgG1, kappa, V domains shown, Humanized, human IgG1 kappa; Hv3-23 S31H T62S heavy + Kv2D-29 N28Q kappa) VH: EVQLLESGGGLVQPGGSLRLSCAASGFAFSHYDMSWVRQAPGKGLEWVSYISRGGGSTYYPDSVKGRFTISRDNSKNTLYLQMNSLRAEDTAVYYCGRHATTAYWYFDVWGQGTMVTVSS VL: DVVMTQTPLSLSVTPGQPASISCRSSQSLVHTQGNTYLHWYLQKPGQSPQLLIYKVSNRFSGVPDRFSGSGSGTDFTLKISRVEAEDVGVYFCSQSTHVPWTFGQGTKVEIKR .
Output line: 590000

Input line: Now try Hu4F11-69 (antibody, human IgG1, kappa, V domains shown, Humanized, human IgG1 kappa; Hv3-23 A28T S31N T62S heavy + Kv2D-29 N28H kappa) VH: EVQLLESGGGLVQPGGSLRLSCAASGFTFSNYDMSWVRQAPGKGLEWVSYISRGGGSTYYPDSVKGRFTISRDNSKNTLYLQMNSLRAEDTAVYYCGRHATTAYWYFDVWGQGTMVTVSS VL: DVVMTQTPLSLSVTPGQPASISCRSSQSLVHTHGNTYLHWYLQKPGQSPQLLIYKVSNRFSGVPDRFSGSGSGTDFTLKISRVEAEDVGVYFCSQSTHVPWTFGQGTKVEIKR .
Output line: 710000
